protocol: yeast display, Sf9 membrane polyspecificity reagent, FACS + sequencing; frameworks hold sequencing errors
assay endpoint: polyreactivity (PSR sort gate)

>  <biopolymer sequence>
QVQHVESRGGLVQAGGSLRLSCAASGFTFYYNAMGWYRQAPVKERELVAIRFRGGNTYYADSVKGRFTISRDNAKNTVYLQMNSLKPEDTAVYYCNADDRGSTYVDFVYWGQGTQVTVSS

>  <polyreactivity (PSR sort gate)>
low polyreactivity

$$$$
>  <biopolymer sequence>
QVQLVESGGGLVQAGGSLRLSCAASGRTYTFYARGWYRQAPGKERELVAAITWGGGSTYYADSVKGRFTISRDNAKNTVYLQMNSLKPEDTAVYYCAAEWYEPVGSRWYSPYYYWGQGTQVTVSS

>  <polyreactivity (PSR sort gate)>
high polyreactivity

$$$$
>  <biopolymer sequence>
QVQLVESGGGLFQAGGSLRLSCAASGSIFWGYDMGWYRQPPGKERELGARISYSGGSTSYADSVKGRFTISRDNAKNTVYLQMNSLKPEDTAVYYCAADEGGFWWTYPYDCWGQGTQVSVSS

>  <polyreactivity (PSR sort gate)>
low polyreactivity

$$$$
>  <biopolymer sequence>
QVQLVESGGGLVQAGGSLRLSCAASGFIFQAYALGWYRQAPGKERELVASISYSGSRTYYADSVKGRFTISRDNAKNTVYLQMNSLKPEDTAGYYCAARYGRYYKYNYWGQGTQVTVSS

>  <polyreactivity (PSR sort gate)>
high polyreactivity

$$$$

Kindly note the recorded polyreactivity (PSR sort gate) for QVQLVESGGGLVQAGGSLRLSCAASGRTFGKNAMGWYRQAPGKERELVAAISWSGGRTYYADSVKGRFTISRDNAKNTVYLQMNSLKPEDTAVYYCAAVRRRRNSYGYWGQGTQVNVSS , which is high polyreactivity

Kindly note the recorded polyreactivity (PSR sort gate) for QVQLVESGRGLVQAGGSLRISCASSGNTFVYNPMGWYRQAPGKERELVAAIDSGGSTNYADSVKGRFTISRDNAKNTVYLQMNSLKPEDTAVYYCNRTSVYDYYWGQGTQGTVSS , which is low polyreactivity

Kindly note the recorded polyreactivity (PSR sort gate) for QVQLVQSGGGLVQAGGSLRLSCAASGRTFYYNAMGWYRQAPGKERELVAAITSTGGSTYYADSVKGRFTISRDNAKNTVYLQMNSLKPEDTAVYYCNTLGYTQTRGLDYWGQGTQVTVSS , which is low polyreactivity

Kindly note the recorded polyreactivity (PSR sort gate) for QVQLVESGGRLFQAGGSLRLSCAASGRIFYHNALGWYRQAPGKERELVADNASGGSTYYADSVKARFTISRDNAKNTVYLQMNSLKPEDTAVYYCAAEDEDSIFPFPYGAGSLFDFWGQGTQVTVSS , which is low polyreactivity

Kindly note the recorded polyreactivity (PSR sort gate) for QVQLVESGGGLVQAGGSLRLSCSASGFIFGKYAMGRYRQAPGKERELVAAISKSGGSTYYADSVKGRFTISRDNAKNTVYLQMNSLKPEDTAVYYCDARSLGHYGSWGQGTQVTVSS , which is high polyreactivity

Kindly note the recorded polyreactivity (PSR sort gate) for QVQLVESGGGLVQAGGSLRLSCAASGSTFRHNAMGWYRQGPGKERELVATIRTSGGTTYYADSVKGRFTISRDNAKNTVYLQMNSLKPEDTAVYYCAAVSYLFLYQGYPIAYPMYYWGQGTQVTVSS , which is low polyreactivity

Kindly note the recorded polyreactivity (PSR sort gate) for QVQLVESGGGLVQAGGSLRLICAASGRTFSSYSMGWYRQAPGKERELVAAISRSGARTYYADSVKGRFTISRDNAKNTFYVQMNSLKPEDTAVYSCAGVTVAGYDYWGQGTEVTVSS , which is high polyreactivity
